experiment-description: Study 1 Part 1: single ascending dose PK via SDDPI
Type: in vivo
settings: human, plasma, inhaled, 400 ug
endpoint-label: Cmax

structure-notation: CS(=O)(=O)Nc1ccc(C(=O)O[C@@H](Cc2c(Cl)c[n+]([O-])cc2Cl)c2ccc(OC(F)F)c(OCC3CC3)c2)cc1OCC1CC1
endpoint-label: Cmax
observed: 0.195 ng/mL

###

experiment-description: Study 1 Part 1: single ascending dose PK via SDDPI
Type: in vivo
settings: human, plasma, inhaled, 100 ug

structure-notation: CS(=O)(=O)Nc1ccc(C(=O)O[C@@H](Cc2c(Cl)c[n+]([O-])cc2Cl)c2ccc(OC(F)F)c(OCC3CC3)c2)cc1OCC1CC1
result-unit: ng·h/mL
AUC(0-t): 1.48

###

experiment-description: Study 2 Part 1: single ascending dose PK via MDDPI
Format: in vivo
settings: human, plasma, inhaled, 2400 µg
endpoint-label: AUC(0-t) (ng·h/mL)

structure-notation: CS(=O)(=O)Nc1ccc(C(=O)O[C@@H](Cc2c(Cl)c[n+]([O-])cc2Cl)c2ccc(OC(F)F)c(OCC3CC3)c2)cc1OCC1CC1
endpoint-label: AUC(0-t)
result-unit: ng·h/mL
observed: 35.2

###

experiment-description: Study 1 Part 2: repeat ascending dose
Assay type: in vivo, human
settings: human, plasma, inhaled, 300 ug, tmax, 300 µg OD, SDDPI, Day 1, N=8; median (range)

structure-notation: CS(=O)(=O)Nc1ccc(C(=O)O[C@@H](Cc2c(Cl)c[n+]([O-])cc2Cl)c2ccc(OC(F)F)c(OCC3CC3)c2)cc1OCC1CC1
Tmax, h: 2

###

experiment-description: Study 1 Part 2: repeat ascending dose
Format: in vivo, human
settings: human, plasma, inhaled, 300 ug, AUC0–24 h, 300 µg OD, SDDPI, Day 7, N=8; geometric mean (% CV)

structure-notation: CS(=O)(=O)Nc1ccc(C(=O)O[C@@H](Cc2c(Cl)c[n+]([O-])cc2Cl)c2ccc(OC(F)F)c(OCC3CC3)c2)cc1OCC1CC1
AUC(0-t) / ng·h/mL: 5.82

###

experiment-description: Study 1 Part 2: repeat ascending dose
Format: in vivo, human
settings: human, plasma, inhaled, 600 ug, tmax, 600 µg OD, SDDPI, Day 1, N=9; median (range)

structure-notation: CS(=O)(=O)Nc1ccc(C(=O)O[C@@H](Cc2c(Cl)c[n+]([O-])cc2Cl)c2ccc(OC(F)F)c(OCC3CC3)c2)cc1OCC1CC1
Tmax, h: 1.5

###

experiment-description: Study 2 Part 1: single ascending dose PK via MDDPI
Format: in vivo
settings: human, plasma, inhaled

molecule: CS(=O)(=O)Nc1ccc(C(=O)O[C@@H](Cc2c(Cl)c[n+]([O-])cc2Cl)c2ccc(OC(F)F)c(OCC3CC3)c2)cc1OCC1CC1 [CHF6001]
Tmax, h: 3

###

experiment-description: Study 1 Part 1: single ascending dose PK via SDDPI
Type: in vivo
settings: human, plasma, inhaled, 800 ug

structure-notation: CS(=O)(=O)Nc1ccc(C(=O)O[C@@H](Cc2c(Cl)c[n+]([O-])cc2Cl)c2ccc(OC(F)F)c(OCC3CC3)c2)cc1OCC1CC1
result-unit: h
half-life: 26.3

###

experiment-description: Study 1 Part 1: single ascending dose PK via SDDPI
Type: in vivo
settings: human, plasma, inhaled

structure-notation: CS(=O)(=O)Nc1ccc(C(=O)O[C@@H](Cc2c(Cl)c[n+]([O-])cc2Cl)c2ccc(OC(F)F)c(OCC3CC3)c2)cc1OCC1CC1
half-life: 30 to 45 h

###

experiment-description: Study 1 Part 2: repeat ascending dose
Format: in vivo, human
settings: human, plasma, inhaled, 100 ug, tmax, 100 µg OD, SDDPI, Day 1, N=7; median (range)

compound: CS(=O)(=O)Nc1ccc(C(=O)O[C@@H](Cc2c(Cl)c[n+]([O-])cc2Cl)c2ccc(OC(F)F)c(OCC3CC3)c2)cc1OCC1CC1 [CHF6001]
Tmax, h: 1.5

###

experiment-description: Study 2 Part 1: single ascending dose PK via MDDPI
Type: in vivo
settings: human, plasma, inhaled, 4800 µg
endpoint-label: half-life (h)

molecule: CS(=O)(=O)Nc1ccc(C(=O)O[C@@H](Cc2c(Cl)c[n+]([O-])cc2Cl)c2ccc(OC(F)F)c(OCC3CC3)c2)cc1OCC1CC1 [CHF6001]
endpoint-label: half-life
observed: 40

###

experiment-description: Study 2 Part 1: single ascending dose PK via MDDPI
Format: in vivo
settings: human, plasma, inhaled, 4000 µg
endpoint-label: Cmax (ng/mL)

molecule: CS(=O)(=O)Nc1ccc(C(=O)O[C@@H](Cc2c(Cl)c[n+]([O-])cc2Cl)c2ccc(OC(F)F)c(OCC3CC3)c2)cc1OCC1CC1 [CHF6001]
endpoint-label: Cmax
observed: 2.55

###

experiment-description: Study 2 Part 2: repeat ascending dose
Type: in vivo, human
settings: human, plasma, inhaled, 2000 µg, AUC0–12 h, 2,000 µg BID, MDDPI, Day 14, N=9; geometric mean (% CV)
endpoint-label: AUC(0-t) (ng·h/mL)

structure-notation: CS(=O)(=O)Nc1ccc(C(=O)O[C@@H](Cc2c(Cl)c[n+]([O-])cc2Cl)c2ccc(OC(F)F)c(OCC3CC3)c2)cc1OCC1CC1
result-unit: ng·h/mL
observed: 51.1

###

experiment-description: Study 2 Part 2: repeat ascending dose
Format: in vivo, human
settings: human, plasma, inhaled, 1200 µg, tmax, 1,200 µg BID, MDDPI, Day 14, N=9; median (range)
endpoint-label: Tmax

structure-notation: CS(=O)(=O)Nc1ccc(C(=O)O[C@@H](Cc2c(Cl)c[n+]([O-])cc2Cl)c2ccc(OC(F)F)c(OCC3CC3)c2)cc1OCC1CC1
observed: 1.6 h

###

experiment-description: Study 1 Part 2: repeat ascending dose
Format: in vivo, human
settings: human, plasma, inhaled, 600 ug, AUC0–24 h, 600 µg OD, SDDPI, Day 1, N=9; geometric mean (% CV)

structure-notation: CS(=O)(=O)Nc1ccc(C(=O)O[C@@H](Cc2c(Cl)c[n+]([O-])cc2Cl)c2ccc(OC(F)F)c(OCC3CC3)c2)cc1OCC1CC1
AUC(0-t) (ng·h/mL): 4.24

###

experiment-description: Study 2 Part 1: single ascending dose PK via MDDPI
Format: in vivo
settings: human, plasma, inhaled, 4800 µg
endpoint-label: Cmax

structure-notation: CS(=O)(=O)Nc1ccc(C(=O)O[C@@H](Cc2c(Cl)c[n+]([O-])cc2Cl)c2ccc(OC(F)F)c(OCC3CC3)c2)cc1OCC1CC1
observed: 2.72 ng/mL

###

experiment-description: Study 2 Part 1: single ascending dose PK via MDDPI
Type: in vivo
settings: human, plasma, inhaled, 4000 µg

compound: CS(=O)(=O)Nc1ccc(C(=O)O[C@@H](Cc2c(Cl)c[n+]([O-])cc2Cl)c2ccc(OC(F)F)c(OCC3CC3)c2)cc1OCC1CC1 [CHF6001]
Tmax, h: 3

###

experiment-description: Study 1 Part 1: single ascending dose PK via SDDPI
Format: in vivo
settings: human, plasma, inhaled, 800 ug
endpoint-label: Cmax (ng/mL)

molecule: CS(=O)(=O)Nc1ccc(C(=O)O[C@@H](Cc2c(Cl)c[n+]([O-])cc2Cl)c2ccc(OC(F)F)c(OCC3CC3)c2)cc1OCC1CC1 [CHF6001]
endpoint-label: Cmax
observed: 0.432

###

experiment-description: Study 2 Part 2: repeat ascending dose
Format: in vivo, human
settings: human, plasma, inhaled, 2000 µg, tmax, 2,000 µg BID, MDDPI, Day 14, N=9; median (range)

molecule: CS(=O)(=O)Nc1ccc(C(=O)O[C@@H](Cc2c(Cl)c[n+]([O-])cc2Cl)c2ccc(OC(F)F)c(OCC3CC3)c2)cc1OCC1CC1 [CHF6001]
Tmax (h): 1.5

###

experiment-description: Study 1 Part 1: single ascending dose PK via SDDPI
Format: in vivo
settings: human, plasma, inhaled, 200 ug

structure-notation: CS(=O)(=O)Nc1ccc(C(=O)O[C@@H](Cc2c(Cl)c[n+]([O-])cc2Cl)c2ccc(OC(F)F)c(OCC3CC3)c2)cc1OCC1CC1
AUC(0-t) [ng·h/mL]: 2.78

###

experiment-description: Study 1 Part 1: single ascending dose PK via SDDPI
Format: in vivo
settings: human, plasma, inhaled, 20 ug

structure-notation: CS(=O)(=O)Nc1ccc(C(=O)O[C@@H](Cc2c(Cl)c[n+]([O-])cc2Cl)c2ccc(OC(F)F)c(OCC3CC3)c2)cc1OCC1CC1
AUC(0-t) / ng·h/mL: 0.0316

###

experiment-description: Study 1 Part 1: single ascending dose PK via SDDPI
Assay type: in vivo
settings: human, plasma, inhaled, 1600 µg

structure-notation: CS(=O)(=O)Nc1ccc(C(=O)O[C@@H](Cc2c(Cl)c[n+]([O-])cc2Cl)c2ccc(OC(F)F)c(OCC3CC3)c2)cc1OCC1CC1
AUC(0-t), ng·h/mL: 18
